# targetEntity: wild type PRC2 (wtPRC2) complex (Homo sapiens, UniProt O75530)
# Sequence (O75530 whole entry): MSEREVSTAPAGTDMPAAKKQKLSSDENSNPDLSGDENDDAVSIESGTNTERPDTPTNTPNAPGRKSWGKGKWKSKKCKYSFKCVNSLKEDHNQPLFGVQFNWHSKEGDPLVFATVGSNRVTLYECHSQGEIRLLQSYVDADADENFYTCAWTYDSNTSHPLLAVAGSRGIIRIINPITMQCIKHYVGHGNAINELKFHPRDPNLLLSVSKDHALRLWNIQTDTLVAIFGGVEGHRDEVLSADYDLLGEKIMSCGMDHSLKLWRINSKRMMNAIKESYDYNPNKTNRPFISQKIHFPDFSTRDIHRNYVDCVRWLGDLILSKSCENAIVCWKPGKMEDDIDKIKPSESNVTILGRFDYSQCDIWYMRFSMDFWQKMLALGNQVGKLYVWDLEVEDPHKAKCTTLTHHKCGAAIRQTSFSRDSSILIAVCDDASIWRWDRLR
# Sequence (Q15910 whole entry partner): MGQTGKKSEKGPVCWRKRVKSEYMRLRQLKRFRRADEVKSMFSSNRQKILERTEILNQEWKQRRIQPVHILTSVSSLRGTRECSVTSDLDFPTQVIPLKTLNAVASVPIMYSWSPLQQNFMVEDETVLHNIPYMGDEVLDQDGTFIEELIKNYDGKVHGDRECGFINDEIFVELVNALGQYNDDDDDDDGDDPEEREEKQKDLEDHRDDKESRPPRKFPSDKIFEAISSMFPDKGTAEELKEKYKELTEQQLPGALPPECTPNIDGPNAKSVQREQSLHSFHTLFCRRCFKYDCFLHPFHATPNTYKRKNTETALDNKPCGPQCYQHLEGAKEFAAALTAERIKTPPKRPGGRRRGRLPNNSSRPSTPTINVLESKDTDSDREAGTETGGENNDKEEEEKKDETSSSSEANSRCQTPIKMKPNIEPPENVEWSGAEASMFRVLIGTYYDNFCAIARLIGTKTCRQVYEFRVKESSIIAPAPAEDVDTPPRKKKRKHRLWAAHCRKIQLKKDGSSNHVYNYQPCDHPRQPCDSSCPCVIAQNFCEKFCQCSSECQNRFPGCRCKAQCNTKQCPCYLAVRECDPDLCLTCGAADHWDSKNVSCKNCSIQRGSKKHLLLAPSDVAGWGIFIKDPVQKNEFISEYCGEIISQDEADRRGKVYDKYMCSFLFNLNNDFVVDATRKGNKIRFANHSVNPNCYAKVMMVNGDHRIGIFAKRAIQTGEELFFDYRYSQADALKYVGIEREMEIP
# Sequence (Q15022 whole entry partner): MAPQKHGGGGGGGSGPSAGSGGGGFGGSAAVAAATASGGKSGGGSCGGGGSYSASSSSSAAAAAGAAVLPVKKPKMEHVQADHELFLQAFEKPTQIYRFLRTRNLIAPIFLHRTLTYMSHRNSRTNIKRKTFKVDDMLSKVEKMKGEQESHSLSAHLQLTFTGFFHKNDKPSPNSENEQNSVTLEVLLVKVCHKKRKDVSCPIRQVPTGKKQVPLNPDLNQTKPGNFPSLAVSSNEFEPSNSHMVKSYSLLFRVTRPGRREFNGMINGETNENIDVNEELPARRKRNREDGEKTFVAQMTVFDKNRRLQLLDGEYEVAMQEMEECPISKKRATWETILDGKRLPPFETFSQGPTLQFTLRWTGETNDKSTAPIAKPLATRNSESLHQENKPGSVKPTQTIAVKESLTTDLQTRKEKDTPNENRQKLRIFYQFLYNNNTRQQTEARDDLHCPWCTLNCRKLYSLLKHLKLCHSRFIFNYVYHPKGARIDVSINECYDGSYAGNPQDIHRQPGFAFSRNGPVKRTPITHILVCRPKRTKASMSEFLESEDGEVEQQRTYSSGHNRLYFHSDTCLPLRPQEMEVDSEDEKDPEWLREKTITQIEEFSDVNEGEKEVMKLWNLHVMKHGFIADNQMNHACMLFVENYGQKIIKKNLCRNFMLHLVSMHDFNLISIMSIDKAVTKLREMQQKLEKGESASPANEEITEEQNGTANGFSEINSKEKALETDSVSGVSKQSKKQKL
# Sequence (Q09028 whole entry partner): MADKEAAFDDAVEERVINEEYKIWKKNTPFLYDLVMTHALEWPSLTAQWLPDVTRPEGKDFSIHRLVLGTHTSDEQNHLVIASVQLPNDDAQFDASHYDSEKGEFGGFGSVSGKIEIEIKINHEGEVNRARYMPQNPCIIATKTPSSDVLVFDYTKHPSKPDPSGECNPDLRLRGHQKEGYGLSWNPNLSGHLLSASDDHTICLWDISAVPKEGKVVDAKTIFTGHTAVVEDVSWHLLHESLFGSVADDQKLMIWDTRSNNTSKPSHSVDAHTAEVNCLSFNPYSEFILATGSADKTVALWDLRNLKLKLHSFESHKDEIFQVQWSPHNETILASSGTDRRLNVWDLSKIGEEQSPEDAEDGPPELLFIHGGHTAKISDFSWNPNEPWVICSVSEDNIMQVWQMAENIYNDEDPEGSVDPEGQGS
# Sequence (Q6ZN18 whole entry partner): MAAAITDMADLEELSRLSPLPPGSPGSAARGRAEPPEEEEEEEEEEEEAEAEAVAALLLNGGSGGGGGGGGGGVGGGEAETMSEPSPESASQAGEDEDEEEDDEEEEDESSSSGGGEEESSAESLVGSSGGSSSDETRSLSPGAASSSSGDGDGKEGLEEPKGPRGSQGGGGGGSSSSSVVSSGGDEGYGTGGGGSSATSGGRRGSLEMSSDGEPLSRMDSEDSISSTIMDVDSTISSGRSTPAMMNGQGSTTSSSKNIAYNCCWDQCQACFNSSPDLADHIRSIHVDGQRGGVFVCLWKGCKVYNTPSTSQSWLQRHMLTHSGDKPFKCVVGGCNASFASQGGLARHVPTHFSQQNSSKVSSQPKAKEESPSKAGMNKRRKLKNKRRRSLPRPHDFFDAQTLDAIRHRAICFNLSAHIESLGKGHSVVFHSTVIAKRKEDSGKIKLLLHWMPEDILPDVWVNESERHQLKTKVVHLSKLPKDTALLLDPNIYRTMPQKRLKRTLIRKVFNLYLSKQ
# assayComment: EED LC-MS assay (SAH production by PRC2)
# Type: biochemical
# experimentalConditions: PRC2 LC-MS assay; read-out: (b) IC50 EED LC-MS Qualified
pIC50: −log10 of the molar value.
testReadout: pIC50

Examples with answers:
{"molecule": "COc1cccc(F)c1CNc1ccc(-c2ccnc(CF)c2C)c2nncn12 [Example 278]", "testReadout": "pIC50", "measured": 7.57}
{"molecule": "COc1cc(F)cc(F)c1CNc1ccc(-c2cnccc2C)c2nncn12 [Example 253]", "testReadout": "pIC50", "measured": 6.54}

P: COc1cccc(F)c1CNc1ccc(-c2ccc(S(C)(=O)=O)nc2C(F)F)c2nncn12 [Example 293]
Q: COc1cccc(F)c1CNc1ccc(-c2c(C)ccnc2F)c2nncn12 [Example 218]
R: COc1cccc(F)c1CNc1ccc(-c2cc(F)ccc2C)c2nncn12 [Example 223]
S: COc1cccc(F)c1CNc1ccc(-c2cccnc2C#N)c2nncn12 [Example 340]
T: COc1cccc(F)c1CNc1ccc(-c2ccc(C(=O)N(C)C)nc2)c2nncn12 [Example 194]
Order the records by pIC50, with each subsequent value no larger than the one before. When ranking, write the labels in the order the request describes.
P, T, Q, R, S
(P: 7.70, T: 7.31, Q: 7.10, R: 6.64, S: 6.28)

I: COc1cccc(F)c1CNc1ccc(-c2ccc(C#N)nc2C)c2nncn12 [Example 250]
II: COc1cccc(F)c1CNc1ccc(-c2cc(C)ncc2C(F)F)c2nncn12 [Example 337]
III: COc1ccc(-c2ccc(NCc3c(F)cccc3OC)n3cnnc23)c(C)n1 [Example 310]
Arrange by pIC50, high to low. List each label, following the requested order.
I, III, II

A: COc1cccc(F)c1CNc1ccc(-c2cccnc2Cl)c2nncn12 [Example 213]
B: COc1cccc(F)c1CNc1ccc(-c2cnn(C3CCOCC3)c2)c2nncn12 [Example 212]
Of the two listed items, A and B , which carries the larger pIC50 figure? Answer with the label corresponding to your selection.
A
(A: 7.70, B: 7.12)

A: COc1c(F)ccc(F)c1CNc1ccc(-c2ccc(S(C)(=O)=O)nc2C)c2nncn12 [Example 334]
B: COc1cccc(F)c1CNc1ccc(-c2ccc(C(=O)N(C)C)nc2C)c2nncn12 [Example 269]
Rank A against B by their pIC50 values and give the higher one. Reply briefly: the label of your chosen item.
B
(B: 7.22, A: 6.84)

A: COc1cccc(F)c1CNc1ccc(-c2cnn(C(C)C)c2C)c2nncn12 [Example 289]
B: COc1cccc(F)c1CNc1ccc(-c2cnc(S(C)(=O)=O)cc2C)c2nncn12 [Example 184]
Could you kindly indicate whether A or B has the higher pIC50 value? Pick one; state its label.
B
